Target: UniProtKB P21554
Sequence (P21554 whole entry): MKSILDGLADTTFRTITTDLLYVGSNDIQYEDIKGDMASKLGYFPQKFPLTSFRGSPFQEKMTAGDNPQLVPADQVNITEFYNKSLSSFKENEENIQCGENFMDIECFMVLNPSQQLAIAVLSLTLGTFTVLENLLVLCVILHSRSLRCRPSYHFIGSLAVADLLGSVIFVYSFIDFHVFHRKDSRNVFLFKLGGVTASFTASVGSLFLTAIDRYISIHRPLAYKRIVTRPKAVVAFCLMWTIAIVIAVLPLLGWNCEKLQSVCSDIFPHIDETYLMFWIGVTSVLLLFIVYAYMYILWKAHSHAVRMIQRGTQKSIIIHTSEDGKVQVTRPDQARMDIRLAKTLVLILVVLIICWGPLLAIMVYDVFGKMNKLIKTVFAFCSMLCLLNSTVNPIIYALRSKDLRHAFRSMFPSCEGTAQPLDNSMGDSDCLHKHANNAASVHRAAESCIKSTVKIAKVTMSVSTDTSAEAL
Experiment: CB1 competitive radioligand binding assay ([3H] SR141716A)
Set-up: expressed in transfected cells; host or cells: Chem-1 cells
pKi: −log10 of the molar value.
Entry flag: YES if pKi reaches 7; NO if it does not.

Before answering, review these 6 worked examples.
{"smiles.record": "CCCCCCC(C)(C)c1cc(O)c2c(c1)OC(C)(C)[C@@H]1CC=C(C(=O)NC34CC5CC(CC(O)(C5)C3)C4)C[C@@H]21", "qualitative.label": "NO"}
{"smiles.record": "CCCCCCC(C)(C)c1cc(O)c2c(c1)OC(C)(C)[C@@H]1CC=C(C(=O)NC34CC5CC(CC(C5)C3)C4)C[C@@H]21", "qualitative.label": "YES"}
{"smiles.record": "CCCCC(C)(C)c1cc(O)c2c(c1)OC(C)(C)[C@@H]1CC=C(C(=O)O)C[C@@H]21", "qualitative.label": "NO"}
{"smiles.record": "CCCCCCC(C)(C)c1cc(O)c2c(c1)OC(C)(C)[C@@H]1CC=C(C(=O)N[C@@H](C)CCO)C[C@@H]21", "qualitative.label": "NO"}
{"smiles.record": "CCCCCCC(C)(C)c1cc(O)c2c(c1)OC(C)(C)[C@@H]1CC=C(C(=O)NOC)C[C@@H]21", "qualitative.label": "YES"}
{"smiles.record": "CCCCCCC(C)(C)c1cc(O)c2c(c1)OC(C)(C)[C@@H]1CC=C(C(=O)NC(C)=N)C[C@@H]21", "qualitative.label": "YES"}

*Q* Does the molecule CCCCCCC(C)(C)c1cc(O)c2c(c1)OC(C)(C)[C@@H]1CC=C(C(=O)OC)C[C@@H]21 have recorded pKi that is 7 or more?
*A* NO
